Data provenance is PubChem BioAssay AID1918996.

Tested on: 349418-098-R-PDC complex spheroid growth;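 also: spheroids also contain HUVEC endothelial cells and human MSC stroma; spheroids exposed to agents for seven days before luminescence viability read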
Experiment: Anticancer human tumor 349418-098-R-PDC patient-derived lung adenocarcinoma cell line growth inhibition [AhR]
Conditions: second compound 3.16 µM; first compound 10 µM; hits give low values
The label yes (1) is reserved for viability, T/C strictly under 10%; no (0) covers values equal to or above it.

viability, T/C strictly < 10% for this compound? Nc1ccccc1NC(=O)c1ccc(CNC(=O)OCc2cccnc2)cc1 + Cc1cncc(-c2nc(NCCc3c[nH]c4ccccc34)c3ncn(C(C)C)c3n2)c1
yes (1)

viability, T/C strictly < 10% for this compound? COc1ccc([C@@H](O)c2cc(-c3ncnc4cc(N5CCOCC5)ccc34)c(F)cc2Cl)nn1 + Cc1cncc(-c2nc(NCCc3c[nH]c4ccccc34)c3ncn(C(C)C)c3n2)c1
yes (1)

viability, T/C strictly < 10% for this compound? Nc1ccn(C2OC(CO)C(O)C2(F)F)c(=O)n1 (stereo unspecified) + Cc1cncc(-c2nc(NCCc3c[nH]c4ccccc34)c3ncn(C(C)C)c3n2)c1
yes (1)

viability, T/C strictly < 10% for this compound? CC1(C)CCC(CN2CCN(c3ccc(C(=O)NS(=O)(=O)c4ccc(NCC5CCOCC5)c([N+](=O)[O-])c4)c(Oc4cnc5[nH]ccc5c4)c3)CC2)=C(c2ccc(Cl)cc2)C1 + CC(CO)NC(=O)c1cc(-c2ccc(Cl)cc2)nn(-c2cnn(C)c2)c1=O
no (0)

viability, T/C strictly < 10% for this compound? CC(C)c1c(-c2ccccc2)nc2c(C#N)c[nH]n2c1=O + CC(CO)NC(=O)c1cc(-c2ccc(Cl)cc2)nn(-c2cnn(C)c2)c1=O
no (0)
